target: MyD88^TIR (Homo sapiens); construct: MyD88 (residues 148–296); 6xHis; made in house; host or cells: E. coli BL21 (DE3); assay: T‐Surf phage library (P8 and P3) selection against MyD88^TIR, four rounds, NGS read counts; type: binding; conditions: P3 library, selection against MyD88, rank before grouping
Sequence (Q99836 148-296): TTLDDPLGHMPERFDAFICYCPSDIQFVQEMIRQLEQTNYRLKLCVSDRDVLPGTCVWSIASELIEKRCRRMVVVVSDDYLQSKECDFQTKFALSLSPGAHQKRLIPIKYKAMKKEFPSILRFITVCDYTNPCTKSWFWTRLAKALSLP
I'd appreciate it if you could supply P3_MyD88 Rank (before) values for the items below.

seq_text=KNLFNLLGSKDIRALM assay_system="MyD88^TIR (Homo sapiens)" result=3781

Batch request: P3_MyD88 Rank (before) per item, same order as input.
1. SSWREGLCRLLELRNK
2. LVAMKLPRACLKRLK
3. SSFREGMWRLMVLSKK
4. SSFREGLWRLLGLRKK

[3264, 2318, 3219, 3165]
